System: HCT116 cells
Assay: Antiproliferation assay, Cell Titer Glo, 72 hours
Type: cell-based
Details: Homo sapiens, HCT-116, 72 h
pIC50: −log10 of the molar value.

{"lineNotation": "C=CC(=O)Nc1cccc(S(=O)(=O)N2CCC[C@@H](NC(=O)c3n[nH]cc3NC(=O)c3c(Cl)cccc3Cl)C2)c1", "censoringOperator": "<", "pIC50": 5.00}
{"lineNotation": "C=CC(=O)Nc1cccc(S(=O)(=O)N2CCC(NC(=O)c3n[nH]cc3NC(=O)c3c(Cl)cccc3OC)CC2)c1", "censoringOperator": "=", "pIC50": 6.94}
{"lineNotation": "C=CC(=O)Nc1cccc(CN2CCC(NC(=O)c3n[nH]cc3NC(=O)c3c(F)cc(F)cc3F)CC2)c1", "censoringOperator": "=", "pIC50": 8.72}
{"lineNotation": "CN(C)C/C=C/C(=O)Nc1cccc(S(=O)(=O)N2CCC(NC(=O)c3n[nH]cc3NC(=O)C3CCC(F)(F)CC3)CC2)c1", "censoringOperator": "=", "pIC50": 5.09}
{"lineNotation": "CN(C)C/C=C/C(=O)Nc1cccc(C(=O)Nc2ccc(NC(=O)c3n[nH]cc3NC(=O)c3c(Cl)cccc3Cl)cc2)c1", "censoringOperator": "=", "pIC50": 7.43}
{"lineNotation": "COc1ccccc1CC(=O)Nc1c[nH]nc1C(=O)NC1CCN(S(=O)(=O)c2cccc(NC(=O)/C=C/CN(C)C)c2)CC1", "censoringOperator": "=", "pIC50": 6.40}
{"lineNotation": "C=CC(=O)Nc1cccc(S(=O)(=O)N2CCC(N(C)C(=O)c3n[nH]cc3NC(=O)c3c(Cl)cccc3Cl)CC2)c1", "censoringOperator": "<", "pIC50": 5.00}

###

Target: Cdk14/CycY (Homo sapiens (Human))
Assay: Lanthascreen Eu kinase binding assay for Cdk14/CycY with 30 minute pre-incubation
Conditions: 30 minute pre-incubation of kinase with compound; read-out: IC50 CDK14 binding by Lanthascreen
Quick list: IC50 per entry.

{"lineNotation": "C=CC(=O)Nc1ccc(S(=O)(=O)N2CCC(NC(=O)c3n[nH]cc3NC(=O)c3c(Cl)cccc3Cl)CC2)cc1", "censoringOperator": "=", "IC50, nM": 62}
{"lineNotation": "C=CC(=O)Nc1cccc(N2CC[C@@H](NC(=O)c3n[nH]cc3NC(=O)c3c(Cl)cccc3Cl)C2)c1", "censoringOperator": "=", "IC50, nM": 1100}
{"lineNotation": "COc1ccccc1CC(=O)Nc1c[nH]nc1C(=O)NC1CCN(S(=O)(=O)c2cccc(NC(=O)/C=C/CN(C)C)c2)CC1", "censoringOperator": "=", "IC50, nM": 14}
{"lineNotation": "C=CC(=O)Nc1cccc(S(=O)(=O)N2CCC(NC(=O)c3n[nH]cc3NC(=O)c3c(F)cccc3F)CC2)c1", "censoringOperator": ">", "IC50, nM": 1000}
{"lineNotation": "C=CC(=O)Nc1ccc(CN2CC[C@H](NC(=O)c3n[nH]cc3NC(=O)c3c(Cl)cccc3Cl)C2)cc1", "censoringOperator": "=", "IC50, nM": 572}
{"lineNotation": "CN(C)C/C=C/C(=O)Nc1ccc(C(=O)Nc2ccc(NC(=O)c3n[nH]cc3NC(=O)c3c(Cl)cccc3Cl)cc2)cc1", "censoringOperator": "=", "IC50, nM": 68}

###

Biological target: Cdk14/CycY (Homo sapiens (Human), UniProt O94921)
Sequence (O94921 whole entry): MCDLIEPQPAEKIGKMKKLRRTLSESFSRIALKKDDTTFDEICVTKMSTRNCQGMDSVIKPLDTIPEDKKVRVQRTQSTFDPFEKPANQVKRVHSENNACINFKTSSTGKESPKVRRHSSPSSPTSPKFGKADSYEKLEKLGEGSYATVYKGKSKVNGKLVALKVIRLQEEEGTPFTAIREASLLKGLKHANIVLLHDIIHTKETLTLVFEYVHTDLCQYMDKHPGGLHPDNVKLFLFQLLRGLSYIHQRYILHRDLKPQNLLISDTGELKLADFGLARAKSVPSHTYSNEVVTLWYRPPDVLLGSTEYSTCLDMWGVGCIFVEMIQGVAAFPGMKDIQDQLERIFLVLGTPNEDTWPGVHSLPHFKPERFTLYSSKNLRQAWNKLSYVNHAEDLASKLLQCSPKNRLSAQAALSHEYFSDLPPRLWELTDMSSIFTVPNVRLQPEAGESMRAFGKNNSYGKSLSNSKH
Sequence (Q8ND76 whole entry partner): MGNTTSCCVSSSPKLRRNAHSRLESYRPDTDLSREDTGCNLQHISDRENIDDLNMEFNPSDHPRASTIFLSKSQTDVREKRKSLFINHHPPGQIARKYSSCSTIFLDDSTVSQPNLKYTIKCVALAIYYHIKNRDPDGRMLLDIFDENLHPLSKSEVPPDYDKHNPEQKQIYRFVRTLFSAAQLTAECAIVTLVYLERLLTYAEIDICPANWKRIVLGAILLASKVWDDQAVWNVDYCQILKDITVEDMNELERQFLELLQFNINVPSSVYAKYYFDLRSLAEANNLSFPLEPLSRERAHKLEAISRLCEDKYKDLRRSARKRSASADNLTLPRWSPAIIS
Assay: Lanthascreen Eu kinase binding assay for Cdk14/CycY with 30 minute pre-incubation
Conditions: 30 minute pre-incubation of kinase with compound; read-out: IC50 CDK14 binding by Lanthascreen
The label is T for IC50 below 0.1 µM and F for IC50 equal to or exceeding 0.1 µM.

{"molecule": "CN(C)C/C=C/C(=O)Nc1cccc(S(=O)(=O)N2CCC[C@@H](NC(=O)c3n[nH]cc3NC(=O)c3c(Cl)cccc3Cl)C2)c1", "assaySystem": "Cdk14/CycY (Homo sapiens (Human), UniProt O94921)", "labelClass": "F"}
{"molecule": "CN(C)C/C=C/C(=O)Nc1cccc(S(=O)(=O)N2CCC(NC(=O)c3n[nH]cc3NC(=O)c3c(F)cc(F)cc3F)CC2)c1", "assaySystem": "Cdk14/CycY (Homo sapiens (Human), UniProt O94921)", "labelClass": "T"}
{"molecule": "CN(C)C/C=C/C(=O)Nc1cccc(S(=O)(=O)N2CCC(NC(=O)c3n[nH]cc3NC(=O)c3c(F)cccc3F)CC2)c1", "assaySystem": "Cdk14/CycY (Homo sapiens (Human), UniProt O94921)", "labelClass": "T"}
{"molecule": "CN(C)C/C=C/C(=O)Nc1cccc(N2CC[C@@H](NC(=O)c3n[nH]cc3NC(=O)c3c(Cl)cccc3Cl)C2)c1", "assaySystem": "Cdk14/CycY (Homo sapiens (Human), UniProt O94921)", "labelClass": "F"}
{"molecule": "Cc1[nH]nc(C(=O)NC2CCN(S(=O)(=O)c3cccc(NC(=O)/C=C/CN(C)C)c3)CC2)c1NC(=O)c1c(Cl)cccc1Cl", "assaySystem": "Cdk14/CycY (Homo sapiens (Human), UniProt O94921)", "labelClass": "F"}
{"molecule": "C=CC(=O)Nc1ccc(C(=O)Nc2cccc(NC(=O)c3n[nH]cc3NC(=O)c3c(Cl)cccc3Cl)c2)cc1", "assaySystem": "Cdk14/CycY (Homo sapiens (Human), UniProt O94921)", "labelClass": "F"}
{"molecule": "CN(C)C/C=C/C(=O)Nc1ccc(C(=O)Nc2cccc(NC(=O)c3n[nH]cc3NC(=O)c3c(Cl)cccc3Cl)c2)cc1", "assaySystem": "Cdk14/CycY (Homo sapiens (Human), UniProt O94921)", "labelClass": "T"}
{"molecule": "Cc1cc(NC(=O)c2cccc(NC(=O)/C=C/CN(C)C)c2)ccc1NC(=O)c1n[nH]cc1NC(=O)c1c(Cl)cccc1Cl", "assaySystem": "Cdk14/CycY (Homo sapiens (Human), UniProt O94921)", "labelClass": "F"}
{"molecule": "CN(C)C/C=C/C(=O)Nc1cccc(S(=O)(=O)N2CC[C@H](NC(=O)c3n[nH]cc3NC(=O)c3c(Cl)cccc3Cl)C2)c1", "assaySystem": "Cdk14/CycY (Homo sapiens (Human), UniProt O94921)", "labelClass": "F"}
{"molecule": "C=CC(=O)Nc1cccc(CN2CCC(NC(=O)c3n[nH]cc3NC(=O)c3c(Cl)cccc3OC)CC2)c1", "assaySystem": "Cdk14/CycY (Homo sapiens (Human), UniProt O94921)", "labelClass": "T"}
{"molecule": "C=CC(=O)Nc1ccc(NC(=O)c2n[nH]cc2NC(=O)c2c(Cl)cccc2Cl)cc1", "assaySystem": "Cdk14/CycY (Homo sapiens (Human), UniProt O94921)", "labelClass": "F"}
{"molecule": "CN(C)C/C=C/C(=O)Nc1ccc(NC(=O)c2n[nH]cc2NC(=O)c2c(Cl)cccc2Cl)cc1", "assaySystem": "Cdk14/CycY (Homo sapiens (Human), UniProt O94921)", "labelClass": "T"}
{"molecule": "C=CC(=O)Nc1cccc(CN2CCC(NC(=O)c3n[nH]cc3NC(=O)c3c(Cl)cc(Cl)cc3Cl)CC2)c1", "assaySystem": "Cdk14/CycY (Homo sapiens (Human), UniProt O94921)", "labelClass": "F"}
{"molecule": "C=CC(=O)Nc1ccc(N2CC[C@@H](NC(=O)c3n[nH]cc3NC(=O)c3c(Cl)cccc3Cl)C2)cc1", "assaySystem": "Cdk14/CycY (Homo sapiens (Human), UniProt O94921)", "labelClass": "F"}
{"molecule": "C=CC(=O)Nc1cccc(C(=O)Nc2ccc(NC(=O)c3n[nH]cc3NC(=O)c3c(Cl)cccc3Cl)cc2)c1", "assaySystem": "Cdk14/CycY (Homo sapiens (Human), UniProt O94921)", "labelClass": "F"}
{"molecule": "C=CC(=O)Nc1cccc(N2CCC(NC(=O)c3n[nH]cc3NC(=O)c3c(Cl)cccc3Cl)C2)c1 (stereo in doubt)", "assaySystem": "Cdk14/CycY (Homo sapiens (Human), UniProt O94921)", "labelClass": "F"}
{"molecule": "COc1cc(OC)c(C(=O)Nc2c[nH]nc2C(=O)NC2CCN(S(=O)(=O)c3cccc(NC(=O)/C=C/CN(C)C)c3)CC2)c(OC)c1", "assaySystem": "Cdk14/CycY (Homo sapiens (Human), UniProt O94921)", "labelClass": "F"}
{"molecule": "C=CC(=O)Nc1cccc(CN2CCC(NC(=O)c3n[nH]cc3NC(=O)c3c(F)cccc3F)CC2)c1", "assaySystem": "Cdk14/CycY (Homo sapiens (Human), UniProt O94921)", "labelClass": "T"}
{"molecule": "C=CC(=O)Nc1cccc(S(=O)(=O)N2CCC(N(C)C(=O)c3n[nH]cc3NC(=O)c3c(Cl)cccc3Cl)CC2)c1", "assaySystem": "Cdk14/CycY (Homo sapiens (Human), UniProt O94921)", "labelClass": "F"}
{"molecule": "C=CC(=O)N1CCC(NC(=O)c2n[nH]cc2NC(=O)c2c(Cl)cccc2Cl)CC1", "assaySystem": "Cdk14/CycY (Homo sapiens (Human), UniProt O94921)", "labelClass": "F"}
{"molecule": "C=CC(=O)Nc1ccc(C(=O)N2CCC[C@@H](NC(=O)c3n[nH]cc3NC(=O)c3c(Cl)cccc3Cl)C2)cc1", "assaySystem": "Cdk14/CycY (Homo sapiens (Human), UniProt O94921)", "labelClass": "F"}
{"molecule": "C=CC(=O)Nc1ccc(N2CC[C@H](NC(=O)c3n[nH]cc3NC(=O)c3c(Cl)cccc3Cl)C2)cc1", "assaySystem": "Cdk14/CycY (Homo sapiens (Human), UniProt O94921)", "labelClass": "F"}
{"molecule": "CN(C)C/C=C/C(=O)N1CCC[C@@H](NC(=O)c2n[nH]cc2NC(=O)c2c(Cl)cccc2Cl)C1", "assaySystem": "Cdk14/CycY (Homo sapiens (Human), UniProt O94921)", "labelClass": "F"}
{"molecule": "CN(C)C/C=C/C(=O)Nc1ccc(N2CC[C@@H](NC(=O)c3n[nH]cc3NC(=O)c3c(Cl)cccc3Cl)C2)cc1", "assaySystem": "Cdk14/CycY (Homo sapiens (Human), UniProt O94921)", "labelClass": "F"}
{"molecule": "C=CC(=O)Nc1cccc(C(=O)N2CCC(NC(=O)c3n[nH]cc3NC(=O)c3c(Cl)cccc3Cl)CC2)c1", "assaySystem": "Cdk14/CycY (Homo sapiens (Human), UniProt O94921)", "labelClass": "T"}
{"molecule": "C=CC(=O)Nc1ccc(C(=O)N2CCC(NC(=O)c3n[nH]cc3NC(=O)c3c(Cl)cccc3Cl)CC2)cc1", "assaySystem": "Cdk14/CycY (Homo sapiens (Human), UniProt O94921)", "labelClass": "F"}
{"molecule": "CN(C)C/C=C/C(=O)Nc1cccc(C(=O)N2CCC[C@@H](NC(=O)c3n[nH]cc3NC(=O)c3c(Cl)cccc3Cl)C2)c1", "assaySystem": "Cdk14/CycY (Homo sapiens (Human), UniProt O94921)", "labelClass": "F"}
